- RUN CONDITIONS: 308.15 K; 101.33 kPa; Liquid; Falling or rolling sphere viscometry

MOLECULE: CCCCCC(=O)[O-].CCCCCCCC[NH+](CCCCCCCC)CCCCCCCC [trioctylammonium hexanoate]
viscosity [mPa·s]: 11.47
--
MOLECULE: CCCCCCCC(=O)[O-].CCCCCCCC[NH+](CCCCCCCC)CCCCCCCC [trioctylammonium octanoate]
viscosity [mPa·s]: 13.85
--
MOLECULE: CCCC(=O)[O-].CCCCCC[NH+](CCCCCC)CCCCCC [trihexylammonium butanoate]
viscosity [mPa·s]: 7.66
--
MOLECULE: CCCC(=O)[O-].CCCCCCCC[NH+](CCCCCCCC)CCCCCCCC [trioctylammonium butanoate]
viscosity [mPa·s]: 10.09
